testTarget: GLP-1 receptor (UniProt P43220 24-463, limits assumed)
Sequence (P43220 24-463 limits assumed): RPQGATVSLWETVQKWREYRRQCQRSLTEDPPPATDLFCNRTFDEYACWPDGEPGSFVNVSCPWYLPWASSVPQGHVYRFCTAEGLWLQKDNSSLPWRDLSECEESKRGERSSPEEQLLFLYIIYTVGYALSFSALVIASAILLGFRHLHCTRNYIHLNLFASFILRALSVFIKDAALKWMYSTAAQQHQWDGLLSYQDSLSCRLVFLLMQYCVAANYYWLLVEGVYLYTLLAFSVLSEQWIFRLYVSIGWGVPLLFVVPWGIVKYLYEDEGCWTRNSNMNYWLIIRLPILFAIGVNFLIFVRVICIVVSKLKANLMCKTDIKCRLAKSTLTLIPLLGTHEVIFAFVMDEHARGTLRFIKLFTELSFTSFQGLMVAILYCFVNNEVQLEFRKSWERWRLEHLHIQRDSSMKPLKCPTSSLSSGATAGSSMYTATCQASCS
protocolSummary: cell-based or functional assay
Starred links: 1 amine or outer side, 2 acyl side, 3 side chain; linkers in the order of their positions; H or OH if unused. Positions of bridges follow the written chain, without caps; N, C: chain ends. Non-standard residues stand in square brackets, D forms with d. Groups on a side chain read outwards from the residue. No end group written: not given here. *: point of attachment. γGlu = O=C(O)[C@H](CCC(=O)[*:2])N[*:1]; Palmitoyl = CCCCCCCCCCCCCCCC(=O)*; DMIA = not defined here
# maps each entry to its EC50
Field: numeric (pM). Do not append units.

H[dS]QGTFTSDK([γGlu-γGlu-Palmitoyl])SKYLDEQAAKEFIAWLMNT [Chi-2, d-Ser2, Lys10 γE-γE-C16 (SEQ ID NO: 644)] :: 3
[DMIA]SQGTFTSDK([γGlu-Palmitoyl])SKYLDERRAKDFVQWLMNT (lactam 16-20; reading uncertain) [DMIA1, E16/K20 lactam, Lys10 γE-C16 (SEQ ID NO: 651)] :: 6

Incoming: Consider the binder [DMIA]SQGTFTSDK([γGlu-γGlu-Palmitoyl])SKYLDERRAKDFVQWLMNT (lactam 16-20; reading uncertain) [DMIA1, E16/K20 lactam, Lys10 γE-γE-C16 (SEQ ID NO: 652)] . State its measured EC50.
Outgoing: 4
